test.description: in vitro
condition.set: human, liver microsomes
Description: Metabolic stability human liver microsomes assessed as stability at 5 uM by LC/MS-MS analysis
quantity: remaining at 5 µM (%)

Answered examples (3):
CCOC(=O)c1[nH]cc2c1NC1=C(C(=O)CCC1)C2c1ccc(Sc2nc3c(O)cccc3[nH]2)o1 (racemic) :: 40
CCOC(=O)c1[nH]cc2c1NC1=C(C(=O)CCC1)C2c1ccc(Sc2nc3ccc(F)c(F)c3[nH]2)o1 (racemic) :: 66
CCOC(=O)c1[nH]cc2c1NC1=C(C(=O)CNC1)C2c1ccc(Sc2nc3ccccc3[nH]2)o1 (racemic) :: 66

a. CCOC(=O)c1[nH]cc2c1NC1=C(C(=O)CCC1)C2c1ccc(Sc2nc3cc(F)ccc3[nH]2)o1 (racemic)
b. CCOC(=O)c1[nH]cc2c1NC1=C(C(=O)CCC1)C2c1ccc(Sc2nc3cccnc3[nH]2)o1 (racemic)
// which entry reports the smaller remaining at 5 µM, a or b ? To answer, give the label that identifies your chosen option. b

1. CCOC(=O)c1[nH]cc2c1NC1=C(C(=O)CN(CC)C1)C2c1ccc(Sc2nc3ccccc3[nH]2)o1 (racemic)
2. CCOC(=O)c1[nH]cc2c1NC1=C(C(=O)CCC1)C2c1ccc(Sc2nc3c(N)cccc3[nH]2)o1 (racemic)
// which entry reports the smaller remaining at 5 µM, 1 or 2 ? To answer, give the label that identifies your chosen option. 2
(2: 23%, 1: 65%)

a. CCOC(=O)c1[nH]cc2c1NC1=C(C(=O)CCC1)C2c1ccc(Sc2nc3cccc(Cl)c3[nH]2)o1 (racemic)
b. CCOC(=O)c1[nH]cc2c1NC1=C(C(=O)CCC1)C2c1ccc(Sc2nc3c(F)c(F)c(F)cc3[nH]2)o1 (racemic)
Of a and b , whose reported remaining at 5 µM is the larger number? To answer, give the label that identifies your chosen option. a

a. CCOC(=O)c1[nH]cc2c1NC1=C(C(=O)CCC1)C2c1ccc(Sc2nc3cc(F)c(F)cc3[nH]2)o1 (racemic)
b. CCOC(=O)c1[nH]cc2c1NC1=C(C(=O)CCC1)C2c1ccc(Sc2nc3cc(Cl)ccc3[nH]2)o1 (racemic)
// which entry reports the smaller remaining at 5 µM, a or b ? To answer, give the label that identifies your chosen option. a
(a: 58%, b: 90%)

---

Consider compounds characterized by their IC50 with UniProtKB Q96GD4.
Sequence (Q96GD4 whole entry): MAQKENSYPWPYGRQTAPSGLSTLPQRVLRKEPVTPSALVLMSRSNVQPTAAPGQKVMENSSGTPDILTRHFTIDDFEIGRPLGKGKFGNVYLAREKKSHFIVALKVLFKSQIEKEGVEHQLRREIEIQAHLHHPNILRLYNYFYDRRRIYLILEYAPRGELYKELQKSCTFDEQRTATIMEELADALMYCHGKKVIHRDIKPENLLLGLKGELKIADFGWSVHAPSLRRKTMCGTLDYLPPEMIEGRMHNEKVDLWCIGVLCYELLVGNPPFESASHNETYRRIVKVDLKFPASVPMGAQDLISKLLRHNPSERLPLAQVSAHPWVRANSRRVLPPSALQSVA
quantity: IC50 (nM)

COC(=O)c1csc2c1NC1=C(C(=O)CCC1)C2c1ccc(Sc2nc3ccccc3[nH]2)o1 (racemic) :: 5

A. NC(=O)c1[nH]nc2c1NC1=C(C(=O)CCC1)C2c1ccc(Sc2nc3ccccc3[nH]2)o1 (racemic)
B. CCOC(=O)c1[nH]cc2c1NC1=C(C(=O)CCC1)C2c1ccc(Sc2nc3c(O)cccc3[nH]2)o1 (racemic)
C. CCOC(=O)c1[nH]cc2c1NC1=C(C(=O)CNC1)C2c1ccc(Sc2nc3c(F)cccc3[nH]2)o1 (racemic)
// ascending sort on recorded IC50 Use the labels to give the ranking in the order requested. C, B, A
(C: 3 nM, B: 8 nM, A: 19 nM)

---

test.description: in vivo
condition.set: mouse
quantity: half-life (h)
Hi! Could you send only the number? It should be in h, unit omitted.

Recorded half-life (compound "CCOC(=O)c1[nH]cc2c1NC1=C(C(=O)CCC1)[C@H]2c1cccc(Oc2nc3ccccc3[nH]2)c1" ): 2.4

---

assayed.target: Aurora kinase C (Homo sapiens, UniProt Q9UQB9)
Sequence (Q9UQB9 whole entry): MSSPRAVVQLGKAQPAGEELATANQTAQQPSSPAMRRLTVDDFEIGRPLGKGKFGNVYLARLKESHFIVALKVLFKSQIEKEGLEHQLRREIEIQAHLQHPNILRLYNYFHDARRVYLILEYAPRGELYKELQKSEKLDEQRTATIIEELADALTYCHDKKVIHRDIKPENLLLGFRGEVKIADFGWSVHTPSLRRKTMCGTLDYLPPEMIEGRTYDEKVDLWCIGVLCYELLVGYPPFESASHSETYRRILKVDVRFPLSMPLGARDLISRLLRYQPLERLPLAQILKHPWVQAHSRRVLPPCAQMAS
quantity: IC50 (nM)
Hi! Could you send only the number? It should be in nM, unit omitted.

Recorded IC50 (compound "CCOC(=O)c1[nH]cc2c1NC1=C(C(=O)CCC1)[C@H]2c1cccc(Oc2nc3ccccc3[nH]2)c1" ): 3

---

test.description: in vivo
condition.set: mouse, po
Description: Oral bioavailability in mouse
quantity: bioavailability (%)
Hi! Could you send only the number? It should be in %, unit omitted.

Recorded bioavailability (compound "CCOC(=O)c1[nH]cc2c1NC1=C(C(=O)CCC1)[C@H]2c1cccc(Oc2nc3ccccc3[nH]2)c1" ): 64

---

test.description: in vivo
condition.set: mouse
Description: Volume of distribution in mouse
quantity: Vd (L/kg)
Hi! Could you send only the number? It should be in L/kg, unit omitted.

Recorded Vd (compound "CCOC(=O)c1[nH]cc2c1NC1=C(C(=O)CCC1)[C@H]2c1cccc(Oc2nc3ccccc3[nH]2)c1" ): 0.14

---

test.description: in vitro
condition.set: mouse, liver microsomes
Description: Metabolic stability mouse liver microsomes assessed as stability at 5 uM by LC/MS-MS analysis
quantity: remaining at 5 µM (%)

Answered examples (10):
CCOC(=O)c1[nH]cc2c1NC1=C(C(=O)CCC1)C2c1ccc(Sc2nc3cccc(F)c3[nH]2)o1 (racemic) :: 58
CCOC(=O)c1[nH]cc2c1NC1=C(C(=O)CCC1)C2c1ccc(Sc2nc3c(N)cccc3[nH]2)o1 (racemic) :: 35
CCOC(=O)c1[nH]cc2c1NC1=C(C(=O)CCC1)[C@H]2c1cccc(Oc2nc3ccccc3[nH]2)c1 :: 32
CCOC(=O)c1[nH]cc2c1NC1=C(C(=O)CN(CC)C1)C2c1ccc(Sc2nc3ccccc3[nH]2)o1 (racemic) :: 99
CCOC(=O)c1[nH]cc2c1NC1=C(C(=O)CCC1)C2c1ccc(Sc2nc3cc(F)ccc3[nH]2)o1 (racemic) :: 77
CCOC(=O)c1[nH]cc2c1NC1=C(C(=O)CCC1)C2c1ccc(Sc2nc3c(F)c(F)c(F)cc3[nH]2)o1 (racemic) :: 22
CCOC(=O)c1[nH]cc2c1NC1=C(C(=O)CCC1)C2c1ccc(Sc2nc3c(O)cccc3[nH]2)o1 (racemic) :: 37
CCOC(=O)c1[nH]cc2c1NC1=C(C(=O)CCC1)C2c1ccc(Sc2nc3c(F)cc(F)cc3[nH]2)o1 (configuration not stated) :: 36
CCOC(=O)c1[nH]cc2c1NC1=C(C(=O)CCC1)C2c1ccc(Sc2nc3cc(F)c(F)cc3[nH]2)o1 (racemic) :: 55
CCOC(=O)c1[nH]cc2c1NC1=C(C(=O)CCC1)C2c1ccc(Sc2nc3ccccc3[nH]2)o1 (single isomer, unassigned; (+)) :: 83

P. CCOC(=O)c1[nH]cc2c1NC1=C(C(=O)CCC1)C2c1ccc(Sc2nc3cccnc3[nH]2)o1 (racemic)
Q. CCOC(=O)c1[nH]cc2c1NC1=C(C(=O)CCC1)C2c1ccc(Sc2nc3cccc(Cl)c3[nH]2)o1 (racemic)
R. CCOC(=O)c1[nH]cc2c1NC1=C(C(=O)CN(C(=O)CN)C1)[C@H]2c1ccc(Sc2nc3ccccc3[nH]2)o1
S. CCOC(=O)c1[nH]cc2c1NC1=C(C(=O)CN(C(=O)CN)C1)[C@H]2c1ccc(Sc2nc3c(F)cccc3[nH]2)o1
# sort list by recorded remaining at 5 µM, greatest to least Use the labels to give the ranking in the order requested. Q, P, R, S

I. CCOC(=O)c1[nH]cc2c1NC1=C(C(=O)CCC1)C2c1ccc(Sc2nc3cc(Cl)ccc3[nH]2)o1 (racemic)
II. CCOC(=O)c1[nH]cc2c1NC1=C(C(=O)CNC1)C2c1ccc(Sc2nc3ccccc3[nH]2)o1 (racemic)
Of I and II , whose reported remaining at 5 µM is the larger number? To answer, give the label that identifies your chosen option. I
(I: 88%, II: 60%)

---

Consider compounds characterized by their IC50 with UniProt:P08684.
Sequence (P08684 whole entry): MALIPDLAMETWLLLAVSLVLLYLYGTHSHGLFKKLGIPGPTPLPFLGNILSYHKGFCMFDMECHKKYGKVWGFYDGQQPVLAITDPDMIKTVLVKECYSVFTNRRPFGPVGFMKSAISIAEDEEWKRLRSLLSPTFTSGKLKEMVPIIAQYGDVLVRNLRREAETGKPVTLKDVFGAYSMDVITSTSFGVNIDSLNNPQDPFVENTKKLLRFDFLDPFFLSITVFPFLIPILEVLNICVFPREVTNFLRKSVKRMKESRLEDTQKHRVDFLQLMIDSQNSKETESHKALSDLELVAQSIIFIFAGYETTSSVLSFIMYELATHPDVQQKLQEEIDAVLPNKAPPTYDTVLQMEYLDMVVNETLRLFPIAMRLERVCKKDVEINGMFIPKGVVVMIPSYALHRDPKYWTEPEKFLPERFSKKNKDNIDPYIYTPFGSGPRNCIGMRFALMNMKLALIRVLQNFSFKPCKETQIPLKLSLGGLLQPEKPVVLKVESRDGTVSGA
quantity: IC50 (nM)

Answered examples (4):
CCOC(=O)c1[nH]cc2c1NC1=C(C(=O)CCC1)C2c1ccc(Sc2nc3cc(F)ccc3[nH]2)o1 (racemic) :: 12000
CCOC(=O)c1[nH]cc2c1NC1=C(C(=O)CCC1)C2c1ccc(Sc2nc3ccc(F)c(F)c3[nH]2)o1 (racemic) :: 34000
CCOC(=O)c1[nH]cc2c1NC1=C(C(=O)CCC1)C2c1ccc(Sc2nc3cccc(Cl)c3[nH]2)o1 (racemic) :: 50
CCOC(=O)c1[nH]cc2c1NC1=C(C(=O)CCC1)C2c1ccc(Sc2nc3ccccc3[nH]2)o1 (single isomer, unassigned; (+)) :: 190

A. CCOC(=O)c1[nH]cc2c1NC1=C(C(=O)CCC1)C2c1ccc(Sc2nc3c(O)cccc3[nH]2)o1 (racemic)
B. CCOC(=O)c1[nH]cc2c1NC1=C(C(=O)CCC1)C2c1ccc(Sc2nc3c(F)cc(F)cc3[nH]2)o1 (configuration not stated)
Of A and B , whose reported IC50 is the larger number? To answer, give the label that identifies your chosen option. B

The values you see were collected from ChEMBL document CHEMBL3392969.
